// reported IC50 for each item listed
# Subject Of Test: Kif5b-RET fusion protein in HEK-293 cells (Homo sapiens, UniProt P07949)
# Sequence (P07949 29-1114 limits assumed): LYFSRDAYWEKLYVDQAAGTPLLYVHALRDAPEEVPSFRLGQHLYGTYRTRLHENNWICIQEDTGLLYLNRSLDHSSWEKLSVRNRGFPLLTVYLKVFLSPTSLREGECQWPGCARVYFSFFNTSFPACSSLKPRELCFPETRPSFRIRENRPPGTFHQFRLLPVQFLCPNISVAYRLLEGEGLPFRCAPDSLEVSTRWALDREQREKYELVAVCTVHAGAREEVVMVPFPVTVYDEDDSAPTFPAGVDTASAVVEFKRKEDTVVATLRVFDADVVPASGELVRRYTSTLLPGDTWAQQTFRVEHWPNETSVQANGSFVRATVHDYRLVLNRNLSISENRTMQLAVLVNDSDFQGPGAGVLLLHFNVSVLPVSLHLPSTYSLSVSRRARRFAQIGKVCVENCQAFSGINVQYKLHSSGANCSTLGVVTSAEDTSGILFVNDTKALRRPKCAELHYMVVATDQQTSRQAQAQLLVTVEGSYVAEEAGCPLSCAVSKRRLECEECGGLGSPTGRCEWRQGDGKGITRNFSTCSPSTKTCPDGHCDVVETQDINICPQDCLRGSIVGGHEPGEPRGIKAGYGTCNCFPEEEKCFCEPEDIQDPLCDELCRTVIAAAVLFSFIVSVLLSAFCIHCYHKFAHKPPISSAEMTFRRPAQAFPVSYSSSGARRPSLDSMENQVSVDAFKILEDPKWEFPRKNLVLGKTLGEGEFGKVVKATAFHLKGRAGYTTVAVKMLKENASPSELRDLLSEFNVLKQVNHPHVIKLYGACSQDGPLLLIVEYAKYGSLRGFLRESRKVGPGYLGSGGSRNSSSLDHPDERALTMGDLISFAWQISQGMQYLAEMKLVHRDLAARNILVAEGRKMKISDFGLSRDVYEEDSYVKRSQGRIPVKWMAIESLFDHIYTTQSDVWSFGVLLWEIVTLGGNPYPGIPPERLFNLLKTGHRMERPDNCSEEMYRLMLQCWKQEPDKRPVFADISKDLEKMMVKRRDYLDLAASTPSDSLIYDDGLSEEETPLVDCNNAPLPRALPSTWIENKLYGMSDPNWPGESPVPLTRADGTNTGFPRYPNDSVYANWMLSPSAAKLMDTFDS
# Measurement Description: cell-based
# Details: HEK-293 cells expressing Kif5b-RET, phospho-RET(Tyr1062); read-out: KIF5B-RET pTYR1062 Cell IC50
# Experimental: The cellular potency of a compound inhibiting RET kinase was determined in HEK-293 cells expressing a Kif5b-RET fusion protein. Briefly, HEK-293 cells expressing a Kif5b-RET fusion protein were plated at 50K cells/well in 96 well poly-D-Lysine coated plates the day prior to the assay. […] The plates were washed with PBS-0.05% Tween20, 100 μL PBS was added to each well, and the plates were read on a LI-COR Aerius fluorescent plate reader. […]

>  <Compound>
COC(CNC(=O)C1CCN(c2ccc(-c3cc(-c4cnn(C)c4)cn4ncc(C#N)c34)cn2)CC1)C(C)C (stereo not shown) [Example 236]

>  <Unit String>
nM

>  <IC50>
3.2

$$$$
>  <Compound>
CC(C)NC(=O)CC1CCN(c2ccc(-c3cc(-c4cnn(C)c4)cn4ncc(C#N)c34)cn2)CC1 [Example 249]

>  <Unit String>
nM

>  <IC50>
33.5

$$$$
>  <Compound>
CC(C)C(=O)N1CCN(c2ccc(-c3cc(-c4cnn(C)c4)cn4ncc(C#N)c34)cn2)CC1 [Example 66]

>  <Unit String>
nM

>  <IC50>
25.4

$$$$
>  <Compound>
CC[C@H](CO)NC(=O)N1CCN(c2ccc(-c3cc(-c4cnn(C)c4)cn4ncc(C#N)c34)cn2)CC1 [Example 96]

>  <Unit String>
nM

>  <IC50>
51.9

$$$$
